- Experimental protocol: Human HepG2 cell viability assay in 384 well format
- Assay type: toxicity, cell-based
- Design: dose 125 nL, time 70.5 hour; concentration not given beside the values
- Test parameters: HepG2 cells, read-out: Inhibition
Reported endpoint: cytotoxicity at 70.5 h (%)
Write the value in % as a bare number.

Consider the worked cases shown below.
1. CNc1ncc(CN(C)C(=O)c2ccccc2C2CCNC2)cn1 (stereo unspecified): 1.83
2. CC(C)c1nsc(N2CCn3c(nnc3-c3ccccc3)C2)n1: -7.62
3. CCCN1CCN(C(=O)Nc2ccccc2Cl)[C@H]2CS(=O)(=O)C[C@H]21: -4.21
4. COc1cc(CNCCn2cc(C)cn2)cc2c1OCCO2: 1.39
5. Cc1cnc(C(=O)N2CCCN(c3nc(C)cs3)CC2)cn1: -7.69
6. COC(C)(C)C(=O)NCC1CCN(Cc2cc3ccccc3[nH]2)C1 (stereo unspecified): -17.4
7. Cc1cnn(CC2CCCCN2C(=O)c2cnc3n[nH]c(C)c3c2)c1 (stereo unspecified): -4.13
8. O=C1N(Cc2ccccn2)C[C@H]2CN(C3CCOCC3)CCN12: -3.19

Record request: cytotoxicity at 70.5 h value, item `O=C(CCn1cc(Cl)cn1)N1CCN(CCOc2ccccc2)CC1`
-4.12

Next molecule: Cc1nc(C)c(C(=O)N2CCCC(C(=O)c3nccn3C)C2)s1 (stereo unspecified)
-2.4

Now the molecule `CN(C)CCN1C(=O)CCC12CCN(C(=O)c1cccnc1)CC2`
-4

---

- Experimental protocol: Human HepG2 cell viability assay in 384 well format
- Format: toxicity, cell-based
- Design: dose 125 nL, time 70.5 hour; concentration not given beside the values
- Test parameters: HepG2 cells, read-out: Inhibition
Measured cytotoxicity at 70.5 h by item
Only the number, expressed in %, is required.

Example entries and their recorded answers appear below.
1. CCOc1cc(C)nc(N2CCN(C(=O)c3cc(C)on3)CC2)n1: -1.38
2. Cc1cnn(CCNC(C)C(=O)Nc2ccc(Cl)cn2)c1 (stereo unspecified): -9.14
3. O=S(=O)(C1CC1)N1CCC2(CCCN(c3ncccn3)C2)C1 (stereo unspecified): 18

Can you look up the measured cytotoxicity at 70.5 h of COc1cccc(-c2noc(C3CCN(Cc4ccccc4C)C3)n2)c1 (stereo unspecified) for me?
13.9

Moving on to `Cc1ccc(CC(=O)N2CCCN(Cc3nccn3C)CC2)cn1`
-1.57

Same question for `CSCCCN1C(=O)CC[C@H]2CN(Cc3ncc[nH]3)CC[C@H]21` please.
-5.45

---

- Experimental protocol: Human HepG2 cell viability assay in 384 well format
- Format: toxicity, cell-based
- Parameters: dose 125 nL, time 70.5 hour; concentration not given beside the values
- Test parameters: HepG2 cells, read-out: Inhibition
Reported endpoint: cytotoxicity at 70.5 h (%)
Dear colleague, please return just the value in %, with no unit written.

// below: answered molecules
1) CCN1CCCC(c2cc(Nc3cnccn3)nc(C)n2)C1 (configuration not stated): -6.21
2) COc1nn(C)c2c1CCCN(C(=O)c1cc[nH]n1)C2: -13
3) CS(=O)(=O)NC1CCCN(Cc2ccc(OCc3ccccn3)cc2)C1 (configuration not stated): -1.69

For the molecule `CC(=O)N1CCCN(Cc2csc(C)n2)c2ccccc21` , what cytotoxicity at 70.5 h is on record?
-2.52

Same question, CCCc1noc(C(C)N(CC)Cc2ccco2)n1 (configuration not stated) this time
7.58

Moving on to CC(NC(=O)CNc1cc2c(cc1Cl)NC(=O)CO2)c1ccco1 (configuration not stated)
14.6

Another molecule to check: CC(C(=O)N1CCCC1)S(=O)(=O)Cc1noc(C(C)(C)C)n1 (configuration not stated)
-2.28

Also `O=S(=O)(NCC1(O)CCCC1)c1ccccc1Br` , if possible.
-0.293

Follow-up entry: O=c1c(NCc2ccccn2)c(NCC(O)CN2CCOCC2)c1=O (configuration not stated)
-12.9

Entry `COc1cc(CCC(=O)NC(C)C)ccc1OCC(F)(F)F` please
-18.5

Another molecule: `CN1CCN(Cc2cn3c(n2)CN(C(=O)c2ccco2)CC3)CC1`
1.76

And for O=C(C1CCCO1)N1CCC(n2cc(-c3ccc(F)cc3)nn2)CC1 (configuration not stated) ?
0.724

Data credit: ChEMBL document CHEMBL3507680
